Values were extracted from patent US9120749B2.

Test system: DU4475
Experiment: Cell-based assay: anti-proliferative activity, Cell Counting Kit-8, 72 hours (DU4475)
Conditions: Homo sapiens, DU-4475, DU4475 cells
One threshold, 0.5 µM, splits the recorded IC50 values: lower ones are Condition met, equal or higher ones are Condition not met.

> print(dat)
                                    molecule        label.value
 1  O=C(c1cnc2ccc(-c3cc(F)c(O)c(Cl)c3)cc2c1Nc1ccc(CN2CCCC2)cc1)C1CC1      Condition met
 2  O=C(c1cnc2ccc(-c3cc(F)c(O)c(Cl)c3)cc2c1N1CCN(CCN2CCCC2)CC1)C1CC1      Condition met
 3  COc1cc(-c2ccc3ncc(C(=O)C4CC4)c(Nc4ccc(CN5CCN(C)CC5)cc4)c3c2)cc(Cl)c1O  Condition not met
 4  CCOc1cc(-c2ccc3ncc(C(C)=O)c(N[C@H]4CC[C@H](N)CC4)c3c2)cc(Cl)c1O      Condition met
 5  C[S+]([O-])c1cnc2ccc(-c3cc(F)c(O)c(Cl)c3)cc2c1N[C@H]1CC[C@H](N)CC1 (stereo partly drawn)  Condition not met
 6  CN1CCN(Cc2cccc(-c3c(C(=O)C4CC4)cnc4ccc(-c5cc(Cl)c(O)c(Cl)c5)cc34)c2)CC1  Condition not met
 7  CN(C)C[C@H]1CC[C@H](Nc2c(S(C)(=O)=O)cnc3ccc(-c4cc(Cl)c(O)c(Cl)c4)cc23)CC1      Condition met
 8  CN(C)C[C@H]1CC[C@H](Nc2c(S(C)(=O)=O)cnc3ccc(-c4cc(F)c(O)c(Cl)c4)cc23)CC1      Condition met
 9  CN(C)Cc1ccc(Nc2c(C(=O)C3CCCC3)cnc3ccc(-c4cc(F)c(O)c(Cl)c4)cc23)cc1      Condition met
10  CN1CCN(c2ncc(-c3c(C(=O)C4CC4)cnc4ccc(-c5cc(Cl)c(O)c(Cl)c5)cc34)cn2)CC1  Condition not met
11  COc1cc(-c2ccc3ncc(C(=O)C4CC4)c(N[C@H]4CC[C@H](CN)CC4)c3c2)cc(Cl)c1O      Condition met
12  COc1cc(-c2ccc3ncc([S+](C)[O-])c(N[C@H]4CC[C@H](N)CC4)c3c2)cc(Cl)c1O (stereo partly drawn)  Condition not met
13  CN(C)Cc1ccc(Nc2c(S(C)(=O)=O)cnc3ccc(-c4cc(Cl)c(O)c(Cl)c4)cc23)cc1      Condition met

* * *

System: DU4475
Assay: Cell-based assay: anti-proliferative activity, Cell Counting Kit-8, 72 hours (DU4475)
Conditions: DU4475 cells; hydrochloride
Counter-ions that a name gives are not always drawn.
test-readout: IC50 (µM)

> print(dat)
                                   molecule  numeric.readout
1  NCc1ccc(Nc2c(C(=O)C3CC3)cnc3ccc(-c4cc(F)c(O)c(Cl)c4)cc23)cc1 [Example 505, hydrochloride]            0.026
2  NCc1ccc(Nc2c(C(=O)C3CC3)cnc3ccc(-c4cc(Cl)c(O)c(Cl)c4)cc23)cc1 [Example 508, hydrochloride]             0.02
3  CN(C)Cc1ccc(Nc2c(S(C)(=O)=O)cnc3ccc(-c4cc(Cl)c(O)c(Cl)c4)cc23)cc1 [Example 401, hydrochloride]             0.11
4  COc1cc(-c2ccc3ncc(C(=O)C4CC4)c(N[C@H]4CC[C@H](CN)CC4)c3c2)cc(Cl)c1O [Example 494, hydrochloride]            0.055
